Values from PubChem BioAssay

# System: Botulinum neurotoxin type F light chain protease (Clostridium botulinum)
# assay_notes: Botulinum neurotoxin type F light chain protease inhibition, multiplex microsphere flow cytometry, validation set (AID 588459)
# cond: multiplex microsphere protease substrate cleavage assay, at 10 µM, stronger effect = higher value
This section presents compounds with their documented inhibition values.
endpoint: inhibition (%)

compound=CC(C)(C)c1ccc(/C=C/C(=O)N2CCCCC2)cc1 target_under_test="Botulinum neurotoxin type F light chain protease (Clostridium botulinum)" result_value=-0.4
compound=Cc1cc(O)c(C(=O)Cc2csc(C)n2)c(O)c1 target_under_test="Botulinum neurotoxin type F light chain protease (Clostridium botulinum)" result_value=-5.7
compound=Cn1c(=S)n(C)c2ccccc21 target_under_test="Botulinum neurotoxin type F light chain protease (Clostridium botulinum)" result_value=4
compound="CC1(C)CC(C(CC(=O)N2CCCC2)Cc2ccccc2)CCO1 (configuration not stated)" target_under_test="Botulinum neurotoxin type F light chain protease (Clostridium botulinum)" result_value=-0.7
compound=C=CCn1c(SCC(=O)NC2CCCCC2)nc2ccccc2c1=O target_under_test="Botulinum neurotoxin type F light chain protease (Clostridium botulinum)" result_value=-0.1
compound="CCCCCCC(=O)N(O)C1CC(=O)N(Cc2ccccc2)C1=O (configuration not stated)" target_under_test="Botulinum neurotoxin type F light chain protease (Clostridium botulinum)" result_value=0.4
compound=CC(C)NC(=O)C1(c2ccccc2)CCOCC1 target_under_test="Botulinum neurotoxin type F light chain protease (Clostridium botulinum)" result_value=-2.6
compound="COc1ccc(CCn2c(C)cc3c(c2=O)C(c2ccncc2)C(C#N)=C(N)O3)cc1OC (configuration not stated)" target_under_test="Botulinum neurotoxin type F light chain protease (Clostridium botulinum)" result_value=-1.2
compound=Cc1ccc(N2CCN(C(=S)c3ccc(-c4cccc([N+](=O)[O-])c4)o3)CC2)cc1 target_under_test="Botulinum neurotoxin type F light chain protease (Clostridium botulinum)" result_value=-0.6
compound=Cc1cccc(Oc2coc3cc(OC(=O)c4cncc(Br)c4)ccc3c2=O)c1 target_under_test="Botulinum neurotoxin type F light chain protease (Clostridium botulinum)" result_value=2.1
compound=OC[C@H]1O[C@@H](n2cnc3c(NC4CCCC4)ncnc32)[C@H](O)[C@@H]1O target_under_test="Botulinum neurotoxin type F light chain protease (Clostridium botulinum)" result_value=-1.4
compound=CCOc1ccc2nc(NC(=O)NC3CCCCC3)sc2c1 target_under_test="Botulinum neurotoxin type F light chain protease (Clostridium botulinum)" result_value=0
compound="CCc1cc(=O)oc2cc(C)c(CN3CCCC(C)C3)c(O)c12 (configuration not stated)" target_under_test="Botulinum neurotoxin type F light chain protease (Clostridium botulinum)" result_value=3.9
compound=COc1ccc(N2C(=O)[C@@H]3[C@H](C2=O)[C@H]2c4ccccc4C=CN2[C@@H]3C(C)=O)cc1 target_under_test="Botulinum neurotoxin type F light chain protease (Clostridium botulinum)" result_value=-2.1
compound="Cc1ccc2nc(C)c3c(c2c1)OC(C(C)(Cl)Br)C3 (configuration not stated)" target_under_test="Botulinum neurotoxin type F light chain protease (Clostridium botulinum)" result_value=-0.4
compound="C/C=C/c1ccc(OCCCCN2CC(C)CC(C)C2)c(OC)c1 (configuration not stated)" target_under_test="Botulinum neurotoxin type F light chain protease (Clostridium botulinum)" result_value=3.1
compound=Cn1cc(CN2CCC(C(=O)N3CCCCC3)CC2)c(-c2ccccc2F)n1 target_under_test="Botulinum neurotoxin type F light chain protease (Clostridium botulinum)" result_value=4
compound="COc1ccc(NC(=O)N2CCCCC2c2cccnc2)cc1 (configuration not stated)" target_under_test="Botulinum neurotoxin type F light chain protease (Clostridium botulinum)" result_value=2.7
compound=Cc1nnc(NS(=O)(=O)c2ccc(N)cc2)s1 target_under_test="Botulinum neurotoxin type F light chain protease (Clostridium botulinum)" result_value=2.8
compound=CCN(CC)CCCNC(=O)C1c2ccccc2Oc2ccccc21 target_under_test="Botulinum neurotoxin type F light chain protease (Clostridium botulinum)" result_value=4.2
compound=COc1cccc(/C=C/C(=O)c2c(O)cc(C)oc2=O)c1O target_under_test="Botulinum neurotoxin type F light chain protease (Clostridium botulinum)" result_value=7
compound="O=C(Nc1cccc(Cl)c1)N1CCN2C(=O)c3ccccc3C12c1ccccc1 (configuration not stated)" target_under_test="Botulinum neurotoxin type F light chain protease (Clostridium botulinum)" result_value=-3.9
